The reported measurements were obtained from patent US11672792B2.

- assayExplanation: in vivo
- runConditions: Sprague Dawley, rat, skin (unscalded intact, full thickness), topical, 1 g montelukast cream

- compound: "CC(C)(O)c1ccccc1CC[C@@H](SCC1(CC(=O)O)CC1)c1cccc(/C=C/c2ccc3ccc(Cl)cc3n2)c1 [Mon, Montelukast sodium]"
  concentration at 2 h (ng/g): 68000
